The following molecules are shown together with reported Percent Effect values.
# System: Wolbachia pipientis
# ASSAY: Anti-Wolbachia Cell-Based Screen
# Assay type: functional
# Set-up: scale not given: in the data most compounds retested in dose-response had high values
# CONDITION NOTES: 5 µM
Among all 48,000 compounds or so, about 13,000 (27%) showed an effect of 50% or more. Some of the results follow.
Write the value in % as a bare number.

Q: // map Cn1c(CO)cnc1SC(C(N)=O)c1ccccc1 (stereo not given) to recorded Percent Effect (system: Wolbachia pipientis)
A: -6.292

Q: // map Cn1cc(C(=O)N[C@@H]2CN(CC3CCOCC3)[C@@H]3CCCO[C@@H]32)cn1.O=C(O)C(F)(F)F to recorded Percent Effect (system: Wolbachia pipientis)
A: -2.907

Q: // map CC(C)c1nnc2sc(CC3CCS(=O)(=O)CC3)nn12 to recorded Percent Effect (system: Wolbachia pipientis)
A: -25.36

Q: // map CCc1nnc2n1CCN(C(=O)c1cnc(C3CC3)s1)C2 to recorded Percent Effect (system: Wolbachia pipientis)
A: -2.147

Q: // map CC(C)C(C(=O)O)c1cccc(Cl)c1 (stereo not given) to recorded Percent Effect (system: Wolbachia pipientis)
A: -23.59

Q: // map Cn1cccc1C(=O)N[C@H]1CN(Cc2ccoc2)[C@@H]2CCCO[C@H]12.O=C(O)C(F)(F)F to recorded Percent Effect (system: Wolbachia pipientis)
A: 107.4

Q: // map Cn1ccnc1C(=O)N[C@@H]1CN(Cc2ccoc2)[C@@H]2CCCO[C@@H]21.O=C(O)C(F)(F)F to recorded Percent Effect (system: Wolbachia pipientis)
A: 105.8

Q: // map Cn1ccnc1C(=O)N[C@@H]1CN(CC2CCOCC2)[C@@H]2CCCO[C@@H]21.O=C(O)C(F)(F)F to recorded Percent Effect (system: Wolbachia pipientis)
A: 97.93

Q: // map CCCc1nnc2sc(C3CCS(=O)(=O)CC3)nn12 to recorded Percent Effect (system: Wolbachia pipientis)
A: 102.2

Q: // map CN1CCC(c2nnc(CN3CCCC3)n2C2CC2)CC1 to recorded Percent Effect (system: Wolbachia pipientis)
A: 3.888

The reported measurements were obtained from ChEMBL document CHEMBL3988442.
